Target: trypsin (Sus scrofa, UniProt P00761)
Construct: purchased Sigma-Aldrich; host or cells: porcine pancreas
Sequence (P00761 9-231): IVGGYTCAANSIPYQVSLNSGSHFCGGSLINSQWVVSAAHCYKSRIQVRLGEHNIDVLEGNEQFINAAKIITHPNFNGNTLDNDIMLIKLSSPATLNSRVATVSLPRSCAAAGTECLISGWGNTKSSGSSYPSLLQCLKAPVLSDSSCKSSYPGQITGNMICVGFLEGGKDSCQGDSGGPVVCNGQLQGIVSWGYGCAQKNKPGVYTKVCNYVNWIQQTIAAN
Test: Trypsin inhibition, real-time measurements of initial velocities with BAPA (free inhibitors)
Assay type: biochemical, porcine
Conditions: apparent Ki, tight-binding (Morrison) fit; 0.1 M NH4HCO3 pH 7.52, 2% (v/v) DMSO, BAPA 1 mM, trypsin 0.25 µM, KM 0.82 mM, read at 410 nm
Non-standard residues stand in square brackets, D forms with d. Residues, ends and D or L forms follow the SMILES beside them. Ahx = NCCCCCC(=O)O
Would you kindly list pKi for each of these compounds?
One number for each entry, as −log10 of the molar value.

See these solved cases before continuing.
                                   compound  outcome_measure  experimental_result
0  CC(C)C[C@H](NC(=O)CCCCCN)C(=O)N[C@@H](CC(C)C)C(=O)N[C@@H](CCCNC(=N)N)C(=O)O [Ahx–Leu–Leu–Arg–COOH] (H-[Ahx]LLR-OH)              pKi                 5.02
1  CC(C)C[C@H](NC(=O)[C@H](Cc1ccccc1)NC(=O)CCCCCN)C(=O)N[C@@H](CCCNC(=N)N)C(=O)O [Ahx–Phe–Leu–Arg–COOH] (H-[Ahx]FLR-OH)              pKi                 5.47
2  CC(=O)N[C@@H](CC(C)C)C(=O)N[C@@H](CC(C)C)C(=O)N[C@@H](CCCNC(=N)N)C(=O)O [oxidized leupeptin]              pKi                 5.57
3  CC(=O)N[C@@H](CC(C)C)C(=O)N[C@@H](CC(C)C)C(=O)N[C@H](C=O)CCCNC(=N)N [Leupeptin, Ac–Leu–Leu–Arg–CHO]              pKi                 7.06

Let us examine a further case.
pKi in this record for CC(=O)N[C@@H](CC(C)C)C(=O)N[C@@H](CC(C)C)C(=O)N[C@H](CO)CCCNC(=N)N [reduced leupeptin] : 3.57
